Provide the recorded koff for the entries that follow.
# system under test: T1, Clostridium difficile toxin B, soluble full-length (TechLab) (Clostridium difficile, UniProt P18177 2-2366)
# T1 construct: also called tcdB
# T1 sequence (P18177 2-2366 limits assumed): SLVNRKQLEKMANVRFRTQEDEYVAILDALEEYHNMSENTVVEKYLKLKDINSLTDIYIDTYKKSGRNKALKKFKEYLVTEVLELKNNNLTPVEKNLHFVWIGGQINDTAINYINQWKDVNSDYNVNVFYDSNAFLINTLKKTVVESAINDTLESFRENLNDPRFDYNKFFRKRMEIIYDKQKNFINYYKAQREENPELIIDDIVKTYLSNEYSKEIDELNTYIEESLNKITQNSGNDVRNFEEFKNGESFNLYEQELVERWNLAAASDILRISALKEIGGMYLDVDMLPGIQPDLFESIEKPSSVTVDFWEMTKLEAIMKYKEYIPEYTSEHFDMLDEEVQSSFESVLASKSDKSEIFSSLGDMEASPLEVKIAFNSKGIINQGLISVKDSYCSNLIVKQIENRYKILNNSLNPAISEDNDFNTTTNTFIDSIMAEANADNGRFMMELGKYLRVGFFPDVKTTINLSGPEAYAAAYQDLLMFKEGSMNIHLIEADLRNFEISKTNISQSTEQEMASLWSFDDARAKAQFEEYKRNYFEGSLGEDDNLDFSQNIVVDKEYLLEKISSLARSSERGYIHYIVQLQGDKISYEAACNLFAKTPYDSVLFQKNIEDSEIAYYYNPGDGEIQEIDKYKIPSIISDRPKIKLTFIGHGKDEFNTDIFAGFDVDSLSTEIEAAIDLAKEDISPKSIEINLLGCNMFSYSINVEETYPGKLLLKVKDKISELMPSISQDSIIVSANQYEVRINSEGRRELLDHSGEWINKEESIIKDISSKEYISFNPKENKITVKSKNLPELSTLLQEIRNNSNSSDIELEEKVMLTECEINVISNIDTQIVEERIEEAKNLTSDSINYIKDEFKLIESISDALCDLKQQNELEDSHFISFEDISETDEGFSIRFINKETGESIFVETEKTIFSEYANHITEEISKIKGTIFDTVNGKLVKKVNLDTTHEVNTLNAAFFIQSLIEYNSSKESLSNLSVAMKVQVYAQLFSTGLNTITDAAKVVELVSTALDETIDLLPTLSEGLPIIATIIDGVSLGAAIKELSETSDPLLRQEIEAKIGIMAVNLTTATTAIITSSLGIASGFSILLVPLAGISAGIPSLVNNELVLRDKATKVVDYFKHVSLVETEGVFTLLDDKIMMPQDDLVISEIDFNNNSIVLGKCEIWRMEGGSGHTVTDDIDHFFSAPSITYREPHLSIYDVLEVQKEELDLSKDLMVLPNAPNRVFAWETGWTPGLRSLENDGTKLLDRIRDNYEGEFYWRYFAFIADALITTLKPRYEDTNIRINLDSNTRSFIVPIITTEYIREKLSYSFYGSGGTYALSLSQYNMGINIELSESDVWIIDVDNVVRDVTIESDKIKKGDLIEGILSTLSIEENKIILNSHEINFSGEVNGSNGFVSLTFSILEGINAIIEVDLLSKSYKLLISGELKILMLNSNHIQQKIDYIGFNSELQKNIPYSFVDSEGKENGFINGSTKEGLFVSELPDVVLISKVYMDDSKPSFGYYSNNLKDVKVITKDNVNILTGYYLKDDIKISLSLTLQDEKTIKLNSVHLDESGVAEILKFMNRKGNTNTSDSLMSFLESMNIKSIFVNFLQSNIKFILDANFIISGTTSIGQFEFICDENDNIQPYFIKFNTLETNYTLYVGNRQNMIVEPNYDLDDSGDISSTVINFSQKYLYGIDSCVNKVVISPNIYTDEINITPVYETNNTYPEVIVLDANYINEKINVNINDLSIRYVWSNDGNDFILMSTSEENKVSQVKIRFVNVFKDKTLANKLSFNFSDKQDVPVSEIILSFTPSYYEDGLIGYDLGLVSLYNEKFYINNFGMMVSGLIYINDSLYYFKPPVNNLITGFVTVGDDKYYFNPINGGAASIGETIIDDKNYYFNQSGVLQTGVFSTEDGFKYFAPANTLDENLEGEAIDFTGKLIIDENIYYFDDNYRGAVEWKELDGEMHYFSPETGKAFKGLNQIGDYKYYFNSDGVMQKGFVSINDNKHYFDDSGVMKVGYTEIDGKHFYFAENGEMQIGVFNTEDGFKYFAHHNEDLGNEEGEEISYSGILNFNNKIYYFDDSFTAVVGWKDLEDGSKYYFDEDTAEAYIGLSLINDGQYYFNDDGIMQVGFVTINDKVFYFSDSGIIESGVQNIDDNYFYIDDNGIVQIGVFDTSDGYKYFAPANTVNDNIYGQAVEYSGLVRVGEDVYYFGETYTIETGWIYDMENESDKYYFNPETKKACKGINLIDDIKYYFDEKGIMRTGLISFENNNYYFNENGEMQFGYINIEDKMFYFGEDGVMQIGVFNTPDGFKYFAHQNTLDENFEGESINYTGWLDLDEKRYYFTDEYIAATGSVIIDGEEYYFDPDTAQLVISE
# protocol details: SPR Biacore T200, 37C, mAb capture
Give your result in s⁻¹ as a bare value.

So what does the record say about koff for H1H3344P (antibody, V domains shown) VH: EVQLVESGGGLVQPGGSLRLSCAASGFTFKIYAMSWVRQGPGKGLEWVSAISGNGDKTYYTDSVQGRFTISRDNSKNTLFLQMNSLRAEDTAIYYCARGWELLNYWGQGTLVTVSS VL: DIQMTQSPSSLSASIGDRVTITCRASQDISNSLAWFQQKPGKAPKSLIYAASSLQSGVPSRFSGSGSGTDFTLTISSLQPEDFATYYCQQYIPFPPTFGPGTKVDIKR ?
0.000865

Item H1H3347P (antibody, V domains shown) VH: EVQLVESGGGLVQPGGSLRLSCVASGFTFTSYAMSWVRQAPGRGLQWVSAIGGSGDSIYYADSVKGRFTISRDNSKNTLYLQMDSLRAEDTAVYYCARGWELLNYWGQGTLVTVSS VL: DIQMTQSPSSLSASVGDRVTITCRASQDIGNFLAWFQQKPGKAPKSLIYAASSLKSGVPSKISGSGSGTDFTLTINSLQPEDFATYYCQQYNIYPPTFGPGTKVDIKR has what recorded koff?
0.000813
